These data points were gathered from patent US9999619B2.

Measured IC50 Ratio JAK2/JAK1, listed per entry.
Target: human JAK1 (a.a. 837-1142)
Assay: In vitro JAK kinase assay (HTRF, phosphorylation of a biotinylated peptide), JAK1
Type: biochemical
Settings: ratio of JAK2 IC50 to JAK1 IC50, measured at 1 mM ATP

Compound	IC50 Ratio JAK2/JAK1
N#CCC1(n2ccc(-c3ncnc4[nH]ccc34)c2)CN(C2CCN(C(=O)c3ccc(F)c(C(F)(F)F)c3)CC2)C1 [Example 275]	3.1
N#CCC1(n2cc(-c3c(F)cnc4[nH]ccc34)cn2)CN(C2CCN(C(=O)Nc3ccc(F)cc3C(F)(F)F)CC2)C1 [Example 328]	12.9
N#CCC1(n2cc(-c3ncnc4[nH]ccc34)cn2)CN(C2CCN(C(=O)c3cccc(C#N)c3)CC2)C1 [Example 11]	7.2
CS(=O)(=O)N1CCC(N2CC(CC#N)(n3cc(-c4c(F)cnc5[nH]ccc45)cn3)C2)CC1 [Example 355]	3.1

---

Target: human JAK1 (a.a. 837-1142)
Assay: In vitro JAK kinase assay (HTRF, phosphorylation of a biotinylated peptide), JAK1
Format: biochemical
Conditions: ratio of JAK2 IC50 to JAK1 IC50, measured at 1 mM ATP
Mark Y only for IC50 Ratio JAK2/JAK1 values smaller than 20; exact matches and larger values are N.

Smiles text	Classification
CCN(C)Cc1cc(C(=O)N2CCC(N3CC(CC#N)(n4cc(-c5ncnc6[nH]ccc56)cn4)C3)CC2)nc(C(F)(F)F)n1	N
N#CCC1(n2cc(-c3ncnc4[nH]ccc34)cn2)CN(C2CCN(C(=O)OCc3cc(F)cc(F)c3)CC2)C1	N
COc1ccc(C(=O)N2CCC(N3CC(CC#N)(n4cc(-c5ncnc6[nH]ccc56)cn4)C3)CC2)cc1C#N	Y
N#CCC1(n2ccc(-c3ncnc4[nH]ccc34)c2)CN(C2CCN(C(=O)c3cc(F)cc(C#N)c3)CC2)C1	Y
CN(CCCO)Cc1cc(C(=O)N2CCC(N3CC(CC#N)(n4cc(-c5ncnc6[nH]ccc56)cn4)C3)CC2)nc(C(F)(F)F)n1	N
N#CCC1(n2cc(-c3c(F)cnc4[nH]ccc34)cn2)CN(C2CCN(C(=O)c3ccc(C#N)cc3F)CC2)C1	Y
Cc1noc(C)c1S(=O)(=O)N1CCC(N2CC(CC#N)(n3cc(-c4ncnc5[nH]ccc45)cn3)C2)CC1	Y

---

human JAK1 (a.a. 837-1142) (Homo sapiens): reported IC50 for various molecules.
Quantity kind: IC50

Molecule	Test target	Measured value
N#CCC1(n2ccc(-c3ncnc4[nH]ccc34)c2)CN(C2CCN(C(=O)c3cccs3)CC2)C1 [Example 271]	human JAK1 (a.a. 837-1142) (Homo sapiens)	≤ 5 nM
N#CCC1(n2cc(-c3ncnc4[nH]ccc34)cn2)CN(C2CCN(C(=O)c3c(F)cc(-c4cccnc4)cc3F)CC2)C1 [Example 116]	human JAK1 (a.a. 837-1142) (Homo sapiens)	≤ 5 nM
N#CCC1(n2cc(-c3ncnc4[nH]ccc34)cn2)CN(C2CCN(Cc3cc(C(F)(F)F)ccc3Cl)CC2)C1 [Example 211]	human JAK1 (a.a. 837-1142) (Homo sapiens)	5 to 20 nM
N#CCC1(n2cc(-c3ncnc4[nH]ccc34)cn2)CN(C2CC3CCC(C2)N3C(=O)c2ccc(F)c(F)c2)C1 (centres unmarked) [Example 139]	human JAK1 (a.a. 837-1142) (Homo sapiens)	≤ 5 nM
CN(C)c1ccc(C(=O)N2CCC(N3CC(CC#N)(n4cc(-c5ncnc6[nH]ccc56)cn4)C3)CC2)c(F)c1C#N [Example 51]	human JAK1 (a.a. 837-1142) (Homo sapiens)	≤ 5 nM
N#CCC1(n2cc(-c3c(C#N)cnc4[nH]ccc34)cn2)CN(C2CCN(C(=O)c3cc(Br)cc(Br)c3)CC2)C1 [Example 336]	human JAK1 (a.a. 837-1142) (Homo sapiens)	≤ 5 nM
N#CCC1(n2ccc(-c3ncnc4[nH]ccc34)c2)CN(C2CCN(C(=O)Nc3ncccc3F)CC2)C1 [Example 292]	human JAK1 (a.a. 837-1142) (Homo sapiens)	≤ 5 nM
N#CCC1(n2cc(-c3ncnc4[nH]ccc34)cn2)CN(C2CCN(C(=O)c3ccc(F)c(O)c3)CC2)C1 [Example 58]	human JAK1 (a.a. 837-1142) (Homo sapiens)	≤ 5 nM
Cc1nc(NC(=O)N2CCC(N3CC(CC#N)(n4cc(-c5ncnc6[nH]ccc56)cn4)C3)CC2)sc1C [Example 192]	human JAK1 (a.a. 837-1142) (Homo sapiens)	5 to 20 nM
N#CCC1(n2cc(-c3ncnc4[nH]ccc34)cn2)CN(C2CCN(C(=O)OCc3ccccc3)CC2)C1 [Example 389]	human JAK1 (a.a. 837-1142) (Homo sapiens)	≤ 5 nM
N#CCC1(n2cc(-c3ncnc4[nH]ccc34)cn2)CN(C2CCN(Cc3cccc(C#N)c3)CC2)C1 [Example 223]	human JAK1 (a.a. 837-1142) (Homo sapiens)	5 to 20 nM
N#CCC1(n2ccc(-c3ncnc4[nH]ccc34)c2)CN(C2CCN(C(=O)Nc3ccccc3C#N)CC2)C1 [Example 287]	human JAK1 (a.a. 837-1142) (Homo sapiens)	5 to 20 nM
N#CCC1(n2cc(-c3ncnc4[nH]ccc34)cn2)CN(C2CC3CCC(C2)N3C(=O)C2CCCCC2)C1 (centres unmarked) [Example 147]	human JAK1 (a.a. 837-1142) (Homo sapiens)	≤ 5 nM
N#CCC1(n2cc(-c3ncnc4[nH]ccc34)cn2)CN(C2CCN(C(=O)Nc3nc4ccccc4s3)CC2)C1 [Example 193]	human JAK1 (a.a. 837-1142) (Homo sapiens)	≤ 5 nM

---

Molecular target: human JAK1 (a.a. 837-1142)
Experiment: In vitro JAK kinase assay (HTRF, phosphorylation of a biotinylated peptide), JAK1
Format: biochemical
Conditions: ratio of JAK2 IC50 to JAK1 IC50, measured at 1 mM ATP
Categorized via IC50 Ratio JAK2/JAK1: zone 1: < 4; zone 2: ≥ 4 and < 7; zone 3: ≥ 7

Molecule	Classification
N#CCC1(n2cc(-c3ncnc4[nH]ccc34)cn2)CN(C2CCN(Cc3ccc(F)c(C#N)c3)CC2)C1 [Example 220]	zone 2
N#CCC1(n2cc(-c3ncnc4[nH]ccc34)cn2)CN(C2CCN(C(=O)c3ccsc3)CC2)C1 [Example 15]	zone 2
N#CCC1(n2ccc(-c3ncnc4[nH]ccc34)c2)CN(C2CCN(C(=O)Nc3ccccc3C#N)CC2)C1 [Example 287]	zone 2
N#CCC1(n2cc(-c3ncnc4[nH]ccc34)cn2)CN(C2CCN(C(=O)c3cc4ccccc4s3)CC2)C1 [Example 90]	zone 1
N#CCC1(n2cc(-c3c(C#N)cnc4[nH]ccc34)cn2)CN(C2CCN(C(=O)c3cc(C(F)(F)F)ncc3F)CC2)C1 [Example 356]	zone 2
N#CCC1(n2cc(-c3ncnc4[nH]ccc34)cn2)CN(C2CCN(C(=O)c3ccc(-c4cccc5ncccc45)c(F)c3)CC2)C1 [Example 129]	zone 3
N#CCC1(n2ccc(-c3ncnc4[nH]ccc34)c2)CN(C2CCN(C(=O)c3cc(C(F)(F)F)ccc3F)CC2)C1 [Example 273]	zone 2
N#CCC1(n2cc(-c3ncnc4[nH]ccc34)cn2)CN([C@@H]2CCN(C(=O)c3ccnc(C(F)(F)F)n3)C[C@@H]2F)C1 (relative stereo) [Example 362]	zone 3
COc1cc(OC)cc(C(=O)N2CCC(N3CC(CC#N)(n4cc(-c5ncnc6[nH]ccc56)cn4)C3)CC2)c1 [Example 33]	zone 1
N#CCC1(n2cc(-c3ncnc4[nH]ccc34)cn2)CN(C2CCN(C(=O)c3ccc(-c4ccc5ccncc5c4)c(F)c3)CC2)C1 [Example 133]	zone 3
N#CCC1(n2cc(-c3ncnc4[nH]ccc34)cn2)CN(C2CCN(C(=O)c3ccc(-c4cc(F)cc(C#N)c4)c(F)c3)CC2)C1 [Example 128]	zone 1
N#CCC1(n2cc(-c3ncnc4[nH]ccc34)cn2)CN(C2CCN(C(=O)C3CCc4ccccc4C3)CC2)C1 (stereo not drawn) [Example 97]	zone 1
Cc1nc(F)ccc1NC(=O)N1CCC(N2CC(CC#N)(n3cc(-c4ncnc5[nH]ccc45)cn3)C2)CC1 [Example 199]	zone 3
N#CCC1(n2cc(-c3ccnc4[nH]ccc34)cn2)CN(C2CCN(C(=O)c3ccnc(C(F)(F)F)n3)CC2)C1 [Example 299]	zone 2
N#CCC1(n2cc(-c3ncnc4[nH]ccc34)cn2)CN(C2CCN(C(=O)c3ccc(F)cc3F)CC2)C1 [Example 42]	zone 2
N#CCC1(n2cc(-c3ncnc4[nH]ccc34)cn2)CN(C2CCN(C(=O)C3CCC(C(F)(F)F)CC3)CC2)C1 (stereo not drawn) [Example 98]	zone 1
N#CCC1(n2ccc(-c3ncnc4[nH]ccc34)c2)CN(C2CCN(C(=O)c3cc(OC(F)(F)F)ccc3F)CC2)C1 [Example 269]	zone 2
COc1cc(F)cc(C(=O)N2CCC(N3CC(CC#N)(n4cc(-c5ncnc6[nH]ccc56)cn4)C3)CC2)c1 [Example 36]	zone 1
N#CCC1(n2cc(-c3ncnc4[nH]ccc34)cn2)CN(C2CCN(C(=O)c3sc4cccc(F)c4c3Cl)CC2)C1 [Example 92]	zone 1
COc1cc(F)ccc1C(=O)N1CCC(N2CC(CC#N)(n3cc(-c4ncnc5[nH]ccc45)cn3)C2)CC1 [Example 40]	zone 2
N#CCC1(n2cc(-c3ncnc4[nH]ccc34)cn2)CN(C2CCN(C(=O)c3cc4c(C(F)(F)F)cccc4s3)CC2)C1 [Example 93]	zone 1
N#CCC1(n2cc(-c3ncnc4[nH]ccc34)cn2)CN(C2CCN(C(=O)C3(c4ccc(Cl)cc4)CC3)CC2)C1 [Example 111]	zone 1
N#CCC1(n2cc(-c3ncnc4[nH]ccc34)cn2)CN(C2CCN(C(=O)c3ccc(-c4nc5ccccc5o4)c(F)c3)CC2)C1 [Example 137]	zone 2
N#CCC1(n2ccc(-c3ncnc4[nH]ccc34)c2)CN(C2CCN(C(=O)c3cc(F)cc(C(F)(F)F)c3)CC2)C1 [Example 274]	zone 3
N#CCC1(n2ccc(-c3ncnc4[nH]ccc34)c2)CN(C2CCN(C(=O)Nc3cnccc3C(F)(F)F)CC2)C1 [Example 291]	zone 3
N#CCC1(n2cc(-c3ncnc4[nH]ccc34)cn2)CN(C2CCN(C(=O)c3ccccc3F)CC2)C1 [Example 67]	zone 2
